Reported Percent Control by item:
# Tested on: PDGFRB
# Test conditions: Compound Concentration (nM):1000;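 note: KINOMEscan scanMAX binding as percent activity remaining versus control; lower means stronger binding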
Value kind: Percent Control (%)

1. COc1ccc2cc(-c3c(-c4ccncc4)nc(-c4ccc(S(C)(=O)=O)cc4C)n3C)ccc2c1 :: 70
2. CC(C)COC(=O)c1ccc2c(c1)/C(=C/Nc1ccc(S(N)(=O)=O)cc1)C(=O)N2 [GW416981X] :: 57
3. CCn1c(-c2nonc2N)nc2c(C#CC(C)(C)O)nc(OCCNC)cc21.Cl :: 100
4. O=C1Nc2ccc(C(=O)c3ccco3)cc2C1=Cc1cc(Cl)c(O)c(Cl)c1 [GW406108X] :: 88

----------
# System: BUB1
# Test conditions: Compound Concentration (nM):1000
// reported Percent Control for each item listed
Value kind: Percent Control (%)

1) COC(=O)Nc1nc2ccc(Oc3ccc(NC(=O)Nc4cc(C(F)(F)F)ccc4F)cc3)cc2s1.Cl [GW693917A] :: 65
2) CN(C)c1cc2c(Nc3ccc4c(cnn4Cc4ccccc4)c3)ncnc2cn1 [GW282974X] :: 63
3) COc1cccc(-c2c[nH]c3c(N/N=C/c4ccncc4)ncnc23)c1 [GW814408X] :: 50
4) COc1ccc(COc2ccc(Cc3cnc(N)nc3N)cc2OC)cc1 [GW632580X] :: 100
5) NS(=O)(=O)c1ccc(N/N=C2\C(=O)Nc3ccc(-c4cnco4)cc32)cc1 :: 74
6) COc1cc(C)c(N(C)C(=O)CN(C)C)cc1Nc1nc(Nc2cccc(F)c2C(N)=O)c2cc[nH]c2n1 :: 90
7) CC(C)COC(=O)c1ccc2c(c1)/C(=C/Nc1ccc(S(N)(=O)=O)cc1)C(=O)N2 [GW416981X] :: 9.8
8) COc1cc(C=NNc2ncnc3c2cnn3-c2ccccc2)ccc1O [GW513184X] :: 81

----------
Percent Control listing for selected compounds.
# Test system: IGF1R
# Test conditions: Compound Concentration (nM):1000
Value kind: Percent Control (%)

1) COc1ccc2cc(-c3c(-c4ccncc4)nc(-c4ccc(S(C)(=O)=O)cc4C)n3C)ccc2c1 [SB-633825] :: 79
2) C/C(Nc1ccc(S(N)(=O)=O)cc1)=C1/C(=O)Nc2ccccc21 [GW335962X] :: 95
3) CC(C)COC(=O)c1ccc2c(c1)/C(=C/Nc1ccc(S(N)(=O)=O)cc1)C(=O)N2 [GW416981X] :: 100
4) O=C(Nc1n[nH]c2nc(-c3ccc(O)cc3)c(Br)cc12)C1CC1 [SB-725317] :: 100
5) COc1ccccc1-c1cc(/C=C2\C(=O)Nc3ncc(Br)cc32)cc(Br)c1O [GW442130X] :: 100
6) COc1ccc(COc2ccc(Cc3cnc(N)nc3N)cc2OC)cc1 [GW632580X] :: 91
7) COc1ccc2c(-c3ccnc(Nc4cccc(OC(F)(F)F)c4)n3)cnn2n1 [GW810372X] :: 100
8) COc1cc(C=NNc2ncnc3c2cnn3-c2ccccc2)ccc1O [GW513184X] :: 100
9) CCn1c(-c2nonc2N)nc2c(C#CC(C)(C)O)nc(OCCNC)cc21.Cl [GSK949675] :: 100

----------
# System: EPHB2
# Test conditions: Compound Concentration (nM):1000
Measured Percent Control by item
Value kind: Percent Control (%)

1. NS(=O)(=O)c1ccc(N/N=C2\C(=O)Nc3ccc(Cl)cc32)cc1 [GW280670X] :: 100
2. COC(=O)Nc1nc2ccc(Oc3ccc(NC(=O)Nc4cc(C(F)(F)F)ccc4F)cc3)cc2s1.Cl [GW693917A] :: 34
3. COc1cc(C=NNc2ncnc3c2cnn3-c2ccccc2)ccc1O [GW513184X] :: 93
4. COc1ccc2cc(-c3c(-c4ccncc4)nc(-c4ccc(S(C)(=O)=O)cc4C)n3C)ccc2c1 :: 91
5. NS(=O)(=O)c1ccc(N/N=C2\C(=O)Nc3ccc(C(=O)NCc4ccncc4)cc32)cc1 [GW300657X] :: 93
6. Cl.O=C(Nc1ccc(Oc2ccc3[nH]c(NC(=O)c4ccccc4)nc3c2)cc1)Nc1cc(C(F)(F)F)ccc1F [GW709042A] :: 76
7. NS(=O)(=O)c1ccc(N/N=C2\C(=O)Nc3ccc(C(=O)NCCc4c[nH]cn4)cc32)cc1 [GW300660X] :: 100
8. O=C1Nc2ccc(C(=O)c3ccco3)cc2C1=Cc1cc(Cl)c(O)c(Cl)c1 [GW406108X] :: 100
